Source listed as patent US20120316071A1.

molecular target: T1, Recombinant Human DLL4 (R&D Systems Cat#1506-D4/CF) (human, UniProt Q9NR61 27-529); assay: ECL 96-well plate assay (MSD), 0.1 µM Fab, plate coated with 30 µg/mL DLL4
T1 construct: Bought recombinant protein, coated on the plate; also called delta-like protein 4; rHuman DLL4
Endpoint label: Signal/Noise
Could you keep your reply to the number by itself?

>  <Binder>
Fab VH5-51_IGHD5-18*01>3_IGHJ4*01 Y103A & V3-4_IGLJ1*01 (Fab, V domains shown, Heavy chain CDR3 alanine mutant of the parent Fab; Fab format as for the parent) VH: EVQLVQSGAEVKKPGESLKISCKGSGYSFTSYWIGWVRQMPGKGLEWMGIIYPGDSDTRYSPSFQGQVTISADKSISTAYLQWSSLKASDTAMYYCARRGYSAGYDYFDYWGQGTLVTVSS VL: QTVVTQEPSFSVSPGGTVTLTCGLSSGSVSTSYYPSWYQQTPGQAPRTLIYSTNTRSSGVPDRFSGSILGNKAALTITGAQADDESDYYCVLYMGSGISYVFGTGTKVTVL

>  <Signal/Noise>
4

$$$$
>  <Binder>
Fab VH5-51_IGHD5-18*01>3_IGHJ4*01 G100A & V3-4_IGLJ1*01 (Fab, V domains shown, Heavy chain CDR3 alanine mutant of the parent Fab; Fab format as for the parent) VH: EVQLVQSGAEVKKPGESLKISCKGSGYSFTSYWIGWVRQMPGKGLEWMGIIYPGDSDTRYSPSFQGQVTISADKSISTAYLQWSSLKASDTAMYYCARRAYSYGYDYFDYWGQGTLVTVSS VL: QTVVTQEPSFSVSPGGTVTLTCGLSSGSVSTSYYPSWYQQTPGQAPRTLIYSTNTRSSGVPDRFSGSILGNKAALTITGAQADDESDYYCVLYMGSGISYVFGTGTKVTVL

>  <Signal/Noise>
53.3

$$$$

# ---- query binder ----
query: Return the recorded Signal/Noise value; entry: Fab VH5-51_IGHD5-18*01>3_IGHJ4*01 G104A & V3-4_IGLJ1*01 (Fab, V domains shown, Heavy chain CDR3 alanine mutant of the parent Fab; Fab format as for the parent) VH: EVQLVQSGAEVKKPGESLKISCKGSGYSFTSYWIGWVRQMPGKGLEWMGIIYPGDSDTRYSPSFQGQVTISADKSISTAYLQWSSLKASDTAMYYCARRGYSYAYDYFDYWGQGTLVTVSS VL: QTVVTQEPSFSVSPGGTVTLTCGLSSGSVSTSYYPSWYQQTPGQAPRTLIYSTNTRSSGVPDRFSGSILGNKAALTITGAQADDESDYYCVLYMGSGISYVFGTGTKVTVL
result: 41.5
